TESTED_TARGET: GST-Hu-p50 (Homo sapiens, UniProt P19838 7-356)
Sequence (P19838 7-356): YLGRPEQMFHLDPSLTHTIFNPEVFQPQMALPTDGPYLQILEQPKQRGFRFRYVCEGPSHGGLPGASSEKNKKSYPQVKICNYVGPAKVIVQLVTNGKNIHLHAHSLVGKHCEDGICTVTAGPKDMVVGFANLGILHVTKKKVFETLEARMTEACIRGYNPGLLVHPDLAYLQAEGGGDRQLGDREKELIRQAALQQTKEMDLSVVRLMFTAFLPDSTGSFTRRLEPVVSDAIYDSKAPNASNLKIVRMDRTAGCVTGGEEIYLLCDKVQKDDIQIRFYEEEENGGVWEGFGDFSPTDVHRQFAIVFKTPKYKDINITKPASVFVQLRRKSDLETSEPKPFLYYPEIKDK
TEST_PROTOCOL: protein-binding microarray (PBM); PBM: ~300 nM protein, 6 mM HEPES pH 7.8, 80 mM KCl, 0.5 mM EDTA, 0.5 mM EGTA, 6% glycerol, 35 ng/ul poly-dIdC, 1% milk, 1 h, room temperature; Ap Aiptasia and Nv Nematostella (sea anemones) / Co Capsaspora / Aq Amphimedon (sponge) / Dm Drosophila / Hu human; RHD is the Rel homology domain; high values mean tight binding
COND: dsDNA, one strand shown
QUANTITY_NAME: binding signal (z-score)
// units = z-score; emit number, no label

**Query** I would be grateful if you could share the reported binding signal for CCGATTAACATCAGGGAAAATTATGATGTTAATCGGGTCTTGATTCGCTTGACGCTGCTG .
**Result** 5.34

**Query** Find the recorded binding signal belonging to CCGATTAACATCAAGGGGAATAATGATGTTAATCGGGTCTTGATTCGCTTGACGCTGCTG and report it.
**Result** 5.62

**Query** What value of measured binding signal is listed for CCGATTAACATCAGGAACTCCCATGATGTTAATCGGGTCTTGATTCGCTTGACGCTGCTG ?
**Result** 1.95

**Query** Entry CCGATTAACATCAGACTTTTCCCTGATGTTAATCGGGTCTTGATTCGCTTGACGCTGCTG has what binding signal?
**Result** 3.13

**Query** I'd like to know its binding signal. The sequence in question is CCGATTAACATCAGGGGAAACGATGATGTTAATCGGGTCTTGATTCGCTTGACGCTGCTG
**Result** 4.62
